- Species: Rattus norvegicus
- test: Capacity to increase [Ca2+] entry into the vascular smooth muscle was evaluated on rat aorta strips partially depolarized with 10 mM K
- Assay type: functional
- measurement.parameters: Muscle tissue
outcome.measure: pEC50
One number for each entry, as −log10 of the molar value.

CO/C(O)=C1/C(C)=NC(C)=C([N+](=O)[O-])C1c1ccccc1OCc1nonc1C (centres undefined)
7.24
CO/C(O)=C1/C(C)=NC(C)=C([N+](=O)[O-])C1c1ccccc1OCc1no[n+]([O-])c1C (centres undefined)
7.00
CO/C(O)=C1/C(C)=NC(C)=C([N+](=O)[O-])C1c1ccccc1OCc1nonc1C#N (centres undefined)
6.92

# evaluate next
[Q] Supply measured pEC50 of COC(=O)C1=C(C)NC(C)=C([N+](=O)[O-])C1c1ccccc1C(F)(F)F (centres undefined) in your reply.
[A] 7.74
